Give measured TGI for each item. Keep answers brief.
# System: SF-295 CNS
# PROTOCOL NOTES: NCI tumour cell line growth inhibition, 48 h
All answers are understood in µM, so give the number only.

Q: Lab note: need TGI with SF-295 CNS for entry "CC1(C)CC(=O)c2c(nc3c(ccc4ccccc43)c2-c2ccc(NC(=O)CCCCC(=O)Nc3ccc(-c4c5c(nc6c4ccc4ccccc46)CC(C)(C)CC5=O)cc3)cc2)C1" , please look it up.
Result: 41.6

Q: What is its TGI for SF-295 CNS? Entry: "CCOC(=O)C(O)(C(=O)OCC)c1cc(C(C)(C)C)c(O)c(C(C)(C)C)c1"
Result: 52.5

Q: Which measured TGI belongs to "O=C(C[P+](c1ccccc1)(c1ccccc1)c1ccccc1)C[P+](c1ccccc1)(c1ccccc1)c1ccccc1" , tested on SF-295 CNS?
Result: 2.98

Q: What reported TGI corresponds to C[C@]12CCNC(=O)C=C1CC[C@@H]1C2CC[C@@]2(C)C1CC[C@@H]2OC(=O)COc1ccc(N(CCCl)CCCl)cc1 (stereo partly drawn) on SF-295 CNS?
Result: 30.6

Q: Report TGI for Cc1ccc(O)c(C2=CC(c3cccc(Br)c3)SC(N)=N2)c1 (stereo not drawn) tested on SF-295 CNS.
Result: 42.2

---

# Test system: PC-3 prostate
# PROTOCOL NOTES: NCI tumour cell line growth inhibition, 48 h; in the data active = GI50 below about 0.43 µM; inactive = the rest
Choose the fitting class; nothing outside class 1 (active), class 0 (inactive) is accepted.

Q: Dear colleague, could you share the recorded outcome for COc1ccc(C(CC(=O)c2ccccc2)C(C(=O)c2ccccc2)C(c2ccc(OC)cc2)C2C(=O)NC(=S)NC2=O)cc1 (stereo not given) when you have a moment?
Result: class 0

Q: Identify the outcome logged in this assay for the compound shown: "C=C1C(=O)O[C@H]2[C@H]1CC/C(COC(=O)NCCc1c[nH]c3ccc(Cl)cc13)=C\CC[C@@]1(C)O[C@@H]21"
Result: class 0

Q: Could you check what this test reported for "COc1ccccc1NS(=O)(=O)c1ccc2oc(SC(C)C)nc2c1" ?
Result: class 0

Q: Hi, sorry to bother you, what did the test record for "Cc1cnc(Nc2ccc(N3CCN(C)CC3)cc2)nc1Nc1ccc(Cl)c(NS(=O)(=O)C(C)(C)C)c1" ?
Result: class 1

Q: Could you kindly confirm the outcome this assay logged for "O=C(Nc1ccccc1O)c1ccc(NS(=O)(=O)c2cccc3cccnc23)cc1" ?
Result: class 0

Q: What call does the record list for "Cc1cc(Nc2cc(N3CCN(C)CC3)nc(Sc3ccc(NC(=O)C4CC4)cc3)n2)n[nH]1" ?
Result: class 0

Q: // param item: "Cc1cn(-c2ccc(S(C)(=O)=O)cc2)c(-c2ccc(Cl)cc2)n1" ; yields the recorded call
Result: class 0

Q: State the result this test recorded for "C[C@@H]1COCCN1c1cc(C2([S@@](C)(=N)=O)CC2)nc(-c2ccnc3[nH]ccc23)n1" .
Result: class 0

Q: What did the test return for "CCS(=O)(=O)c1ccc(OC)c(Nc2ncc(-c3ccccc3Cl)o2)c1" ?
Result: class 0

Q: For this compound, state the assay outcome: "COc1cc2c(=O)n(CCN(C)C)c3c4cc5c(cc4ccc3c2cc1OC)OCO5"
Result: class 1

Q: Any idea what this test logged for COc1ccc(C2C=C(c3ccc(Cl)cc3)N=C3SC=C(C)N32)c(Br)c1 (stereo not given) ?
Result: class 0

Q: Look up the recorded call for "N#Cc1c(N)nc(NCc2ccccc2)c(C#N)c1-c1ccc(Cl)cc1Cl" in this test.
Result: class 0

Q: Recorded test call requested for c1ccc([As]=[As]c2ccccc2)cc1 (stereo not given)
Result: class 0

Q: Recorded test outcome, item "O=C(CC(=O)c1cccc(Cl)c1)c1cccc(Cl)c1"
Result: class 0

Q: # outcome recorded in this test, key = "COc1cccc(/C(C)=N/NC(=O)CSc2nc3ccccc3c(=O)n2CCc2ccc(S(N)(=O)=O)cc2)c1"
Result: class 0
